// provenance: patent EP1246824B1

- TEST TARGET: Papain (Carica papaya, UniProt P00784)
- Construct: purchased Sigma
- Sequence (P00784 134-345): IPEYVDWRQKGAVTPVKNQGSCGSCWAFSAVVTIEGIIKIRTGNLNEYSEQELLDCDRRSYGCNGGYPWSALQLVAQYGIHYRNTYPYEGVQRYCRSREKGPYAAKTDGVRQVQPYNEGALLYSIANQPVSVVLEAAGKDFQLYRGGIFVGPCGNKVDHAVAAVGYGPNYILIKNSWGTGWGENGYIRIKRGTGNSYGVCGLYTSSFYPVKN
- METHOD SUMMARY: Inhibition of Papain (protocol as for Cathepsine K)
- Type: biochemical
- PROTOCOL CONDITIONS: enzyme 20 ng/ml, 30 min at room temperature; read-out: IC50 µM Papain
MEASUREMENT LABEL: IC50 (µM)
Respond numerically; units are µM and should not be typed.

What value of IC50 on Papain (Carica papaya, UniProt P00784) does `C=CCOC(=O)CC[C@H](NC(=O)[C@@H]1CCCN2C(=O)CC[C@H](NC(=O)NCCc3cccs3)C(=O)N12)C(=O)CSc1nnnn1-c1ccccc1` have?
8
